target: Receptor tyrosine-protein kinase erbB-2 (Homo sapiens) (UniProt P04626); assay: reducers of endogenous Her2 protein level, primary screen, SKBR3 breast tumor cells, AlphaScreen, ATP viability (AID 461); details: 18-24 h, at 10 µM, hits give low values;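 further: lower value means less Her2 protein in the cells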
Sequence (P04626 whole entry, looked up): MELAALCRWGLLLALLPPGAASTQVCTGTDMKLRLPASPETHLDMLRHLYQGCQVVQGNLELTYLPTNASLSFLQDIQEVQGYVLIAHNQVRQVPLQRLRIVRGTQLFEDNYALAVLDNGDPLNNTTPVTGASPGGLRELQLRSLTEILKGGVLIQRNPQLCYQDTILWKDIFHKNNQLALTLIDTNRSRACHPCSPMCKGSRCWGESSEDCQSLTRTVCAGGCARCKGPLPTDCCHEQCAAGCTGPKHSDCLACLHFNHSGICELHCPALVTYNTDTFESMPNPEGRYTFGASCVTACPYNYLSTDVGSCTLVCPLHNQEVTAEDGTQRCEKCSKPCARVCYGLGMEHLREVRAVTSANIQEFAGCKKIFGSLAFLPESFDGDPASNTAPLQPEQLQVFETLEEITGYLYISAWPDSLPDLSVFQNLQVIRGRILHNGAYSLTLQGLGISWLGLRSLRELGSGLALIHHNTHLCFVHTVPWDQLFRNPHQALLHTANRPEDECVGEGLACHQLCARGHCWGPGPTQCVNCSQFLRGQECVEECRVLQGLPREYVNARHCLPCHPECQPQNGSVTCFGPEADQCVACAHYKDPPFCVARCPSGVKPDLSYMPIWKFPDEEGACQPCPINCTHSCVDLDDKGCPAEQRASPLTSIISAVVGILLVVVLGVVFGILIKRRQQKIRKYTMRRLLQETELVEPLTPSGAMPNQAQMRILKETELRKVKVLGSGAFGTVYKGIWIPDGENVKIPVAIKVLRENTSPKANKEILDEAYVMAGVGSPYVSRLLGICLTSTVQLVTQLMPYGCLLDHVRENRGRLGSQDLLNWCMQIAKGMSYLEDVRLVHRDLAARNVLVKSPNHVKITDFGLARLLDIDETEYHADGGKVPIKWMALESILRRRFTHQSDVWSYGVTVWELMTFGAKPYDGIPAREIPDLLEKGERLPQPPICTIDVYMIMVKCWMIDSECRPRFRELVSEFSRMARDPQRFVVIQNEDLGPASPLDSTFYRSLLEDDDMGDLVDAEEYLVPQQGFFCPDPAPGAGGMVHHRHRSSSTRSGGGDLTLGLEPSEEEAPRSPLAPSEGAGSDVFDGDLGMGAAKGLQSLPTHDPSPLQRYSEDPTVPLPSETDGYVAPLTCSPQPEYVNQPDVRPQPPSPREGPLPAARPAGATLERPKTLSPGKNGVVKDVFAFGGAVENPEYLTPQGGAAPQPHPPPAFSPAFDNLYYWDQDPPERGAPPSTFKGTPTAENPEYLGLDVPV
Calls of active or inactive are those of the source.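 How the source made its calls: active means Her2 level under about 52% in both replicate screens, with viability over 70% of control (limit read from the data); inconclusive means Her2 under the limit in one screen only, or viability under 70%; inactive means Her2 level above the set limit.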
endpoint.label: Her2 level

Recorded results for 5 compounds are shown here.
compound: COc1ccc(CCNC(=O)c2cc(C(C)C)on2)cc1OC
tested.system: Receptor tyrosine-protein kinase erbB-2 (Homo sapiens) (UniProt P04626)
Her2 level: 101% (inactive)
//
compound: CCCCOC(=O)C1=C(C)Nc2ncnn2C1c1cccc(OC)c1OC (centres undefined)
tested.system: Receptor tyrosine-protein kinase erbB-2 (Homo sapiens) (UniProt P04626)
Her2 level: 65.5% (inactive)
//
compound: Cc1ccc(Cn2c(C)nc3c(c2=O)c2nc4ccccc4nc2n3Cc2ccco2)cc1
tested.system: Receptor tyrosine-protein kinase erbB-2 (Homo sapiens) (UniProt P04626)
Her2 level: 71.5% (inactive)
//
compound: O=C(CCCn1c(=S)[nH]c2cc3c(cc2c1=O)OCO3)N1CCN(c2ccccc2F)CC1
tested.system: Receptor tyrosine-protein kinase erbB-2 (Homo sapiens) (UniProt P04626)
Her2 level: 95% (inactive)
//
compound: COc1cccc(-c2nnc3sc(C4CCCCC4)nn23)c1
tested.system: Receptor tyrosine-protein kinase erbB-2 (Homo sapiens) (UniProt P04626)
Her2 level: 53.5% (active)

# input Quick one: Her2 level of CCN1CCN(C(=O)c2cc3c(=O)n(C)c4ccccc4c3n2C)CC1 ?
# output 94% (inactive)

# input Also check O=C(Nc1ccc2c(c1)OCO2)C(c1ccccc1)N1CCC2(CC1)OCCO2 (centres undefined)
# output 101% (inactive)

# input Also check O=C(CSc1nnc2scc(-c3ccccc3)n12)Nc1nsc(-c2ccccc2)n1
# output 78% (inactive)

# input Also check COc1cc(Nc2cc(C)nc3ncnn23)cc(OC)c1OC
# output 98.5% (inactive)

# input Also check COc1ccc(-c2nnc(SCC(=O)Nc3cc(C)on3)n2C)cc1OC
# output 90% (inactive)

# input Also check CC(C)c1nc(N2CCN(C(=O)c3ccco3)CC2)c2c3c(sc2n1)CCCC3
# output 94% (inactive)

# input Also check CC(CN1CCCCC1)OC(=O)c1ccc2c(c1)OCO2 (centres undefined)
# output 96% (inactive)

# input Also check Cc1ccc(OCC(=O)N2CCN(C(=O)CCC3CCCC3)CC2)cc1
# output 93.5% (inactive)

# input Also check COc1ccccc1-c1nc(SCc2ccccn2)n[nH]1
# output 78.5% (inactive)

# input Also check CCOC(=O)c1sc(NC(=O)CSc2nnnn2-c2ccccc2)c(C(=O)OCC)c1C
# output 85% (inactive)

# input Also check O=c1oc2ccccc2c(N2CCCCC2)c1CN1CCCCC1
# output 99% (inactive)

# input Also check COc1ccc(CCNC(=O)CSc2nnc(CNc3ccc(Cl)cc3)o2)cc1OC
# output 89% (inactive)

# input Also check CCN(CC)C(=O)c1ccc(NS(=O)(=O)c2ccccc2)cc1
# output 130% (inactive)

# input Also check O=C(COc1ccc(S(=O)(=O)N2CCCC2)cc1Cl)NC1CC1
# output 108% (inactive)

# input Also check c1ccc2c(-c3nc(C4CCCCC4)no3)cc(-c3ccncc3)nc2c1
# output 69% (inactive)

# input Also check O=C(CSc1nnnn1C1CCCC1)NCc1ccc2c(c1)OCO2
# output 89% (inactive)

# input Also check Cc1cc(=O)[nH]c(SCC(=O)NCc2ccco2)n1
# output 106% (inactive)

# input Also check COc1ccc(Br)cc1C1N2CC3(C)CN1CC(C)(C2)C3=O (centres undefined)
# output 89.5% (inactive)

# input Also check Cc1cccc(N(C)C(=O)c2coc(=O)c3ccccc23)c1
# output 81% (inactive)

These measurements were taken from PubChem BioAssay.
